molecular target: β2-adrenoceptor (β2AR) (Rattus norvegicus, UniProt P10608); construct: gene Adrb2
Sequence (P10608 whole entry): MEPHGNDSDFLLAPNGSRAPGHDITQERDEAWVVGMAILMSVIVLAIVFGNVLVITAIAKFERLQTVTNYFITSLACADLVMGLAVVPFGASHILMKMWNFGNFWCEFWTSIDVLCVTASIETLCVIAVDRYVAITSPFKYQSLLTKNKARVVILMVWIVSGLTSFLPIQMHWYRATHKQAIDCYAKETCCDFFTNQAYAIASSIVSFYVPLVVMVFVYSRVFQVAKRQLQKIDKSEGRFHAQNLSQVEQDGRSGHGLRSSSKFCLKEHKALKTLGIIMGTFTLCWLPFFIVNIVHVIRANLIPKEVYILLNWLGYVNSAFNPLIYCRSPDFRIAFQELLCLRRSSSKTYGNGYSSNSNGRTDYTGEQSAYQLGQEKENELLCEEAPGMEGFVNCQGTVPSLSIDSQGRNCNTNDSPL
Listing: EC50 of selected compounds
Value expressed in nM; do not type the unit.

>  <COMPOUND>
C[C@@H](Cc1ccc(O)cc1)NC[C@H](O)c1cc(O)cc(O)c1 (racemic) [RS, (R,S)-fenoterol]

>  <ASSAYED TARGET>
β2-adrenoceptor (β2AR) (Rattus norvegicus, UniProt P10608)

>  <EC50 (nM)>
3500

$$$$

// compound C[C@H](Cc1ccc(O)cc1)NC[C@H](O)c1cc(O)cc(O)c1 [RR, (R,R)-fenoterol] , assay β2-adrenoceptor (β2AR) (Rattus norvegicus, UniProt P10608), EC50 value: 140

The origin of these recorded values is paper PMC4159282.
